Tested on: Candida albicans
TEST_NAME: Fungicidal activity against Candida albicans ATCC 10231
Type: functional
Items are presented alongside their recorded MFC.
Form entry: value (mg/L) — number only.

Solved cases below.
Recorded result, `Cc1ccc([N+](=O)[O-])c2c(NCCO)c3ccccc3nc12` , MFC: 2

Noted for `NCCCC[C@H](N)C(=O)OCCNc1c2ccccc2nc2cccc([N+](=O)[O-])c12` : its MFC reads 16

GET /value?item= C[C@@H]1[C@H](O)[C@@H](C)/C=C/C=C/C=C/C=C/C=C/C=C/C=C/[C@H](O[C@@H]2O[C@H](C)[C@@H](O)[C@H](N)[C@@H]2O)C[C@@H]2O[C@](O)(C[C@@H](O)C[C@@H](O)[C@H](O)CC[C@@H](O)C[C@@H](O)CC(=O)O[C@H]1C)C[C@H](O)[C@H]2C(=O)O [AMPHOTERICIN B] &field=MFC returns 2

Form: compound = `Cc1ccc([N+](=O)[O-])c2c(NCCOC(=O)[C@@H](N)CCCCN)c3ccccc3nc12` ; MFC = 16

Value of measured MFC for the entry `NCCCC[C@H](N)C(=O)NCCCNc1c2ccccc2nc2cccc([N+](=O)[O-])c12` : 16

Now consider the entry below.
Record summary for `O=[N+]([O-])c1cccc2nc3ccccc3c(NCCO)c12` : reported MFC = 4

====

System: Saccharomyces cerevisiae
TEST_NAME: Antifungal activity against Saccharomyces cerevisiae ATCC 9763 assessed as reduction in microbial growth
Format: functional
Catalogue of MIC90 values
Just the number in µg/mL, nothing appended.

Notebook: `Cc1ccc(N)c2c(NCCO)c3ccccc3nc12` , MIC90 read as 64

Summary for this compound, `CN(CCCNc1c2ccccc2nc2cccc([N+](=O)[O-])c12)CCCNc1c2ccccc2nc2cccc([N+](=O)[O-])c12` : MIC90 is 4

Data point: `Cc1ccc([N+](=O)[O-])c2c(NCCNCCNCCNc3c4ccccc4nc4c(C)ccc([N+](=O)[O-])c34)c3ccccc3nc12` ; MIC90 = 32

Measured MIC90 of `Cc1ccc([N+](=O)[O-])c2c(NCCCNC(=O)[C@@H](N)CCCCN)c3ccccc3nc12` : 32

Summary for this compound, `C[C@@H]1[C@H](O)[C@@H](C)/C=C/C=C/C=C/C=C/C=C/C=C/C=C/[C@H](O[C@@H]2O[C@H](C)[C@@H](O)[C@H](N)[C@@H]2O)C[C@@H]2O[C@](O)(C[C@@H](O)C[C@@H](O)[C@H](O)CC[C@@H](O)C[C@@H](O)CC(=O)O[C@H]1C)C[C@H](O)[C@H]2C(=O)O` : MIC90 is 0.5

get_value(item= `O=[N+]([O-])c1cccc2nc3ccccc3c(NCCNCCNCCNc3c4ccccc4nc4cccc([N+](=O)[O-])c34)c12` , readout=MIC90) returns 8

New cases:
Kindly note the recorded MIC90 for `NCCCC[C@H](N)C(=O)NCCCNc1c2ccccc2nc2cccc([N+](=O)[O-])c12` , which is 16

Item: `NCCCC[C@H](N)C(=O)OCCNc1c2ccccc2nc2cccc([N+](=O)[O-])c12` | MIC90: 0.5

Please fill in: MIC90 reported for `O=[N+]([O-])c1cccc2nc3ccccc3c(NCCO)c12` = 0.25

In plain terms, `Cc1ccc([N+](=O)[O-])c2c(NCCOC(=O)[C@@H](N)CCCCN)c3ccccc3nc12` has a documented MIC90 of 1

The reported MIC90 of the compound `Cc1ccc([N+](=O)[O-])c2c(NCCO)c3ccccc3nc12` was 0.5

MIC90 reading for `Cc1ccc([N+](=O)[O-])c2c(NCCCN(C)CCCNc3c4ccccc4nc4c(C)ccc([N+](=O)[O-])c34)c3ccccc3nc12` : 8
